procedure_text: HPLC solubility in SGF, FaSSIF, FeSSIF at 37° C.
Assay type: physicochemical
particulars: thermodynamic from solid, FaSSIF, 0.5 hr
measured_attribute: solubility at 0.5 h (µg/mL)
A number alone suffices; assume µg/mL.

Query: Name the reported solubility at 0.5 h value associated with the compound CC(C)(O)[C@H]1CC[C@H](Nc2ccc3ncc(-c4cccc(C(F)(F)F)c4)n3n2)CC1 [compound of structure (I)]
Result: 10.4

* * *

procedure_text: Oral bioavailability of the compound of structure (I) in rats with different excipients
Format: in vivo
particulars: rat, in vivo, po, excipient 10% PS-20/50% PEG400, read-out: Oral Bioavailability (% F)
measured_attribute: bioavailability (%)
A number alone suffices; assume %.

Query: Name the reported bioavailability value associated with the molecule CC(C)(O)[C@H]1CC[C@H](Nc2ccc3ncc(-c4cccc(C(F)(F)F)c4)n3n2)CC1 [compound of structure (I)]
Result: 15

* * *

procedure_text: HPLC solubility in SGF, FaSSIF, FeSSIF at 37° C.
Assay type: physicochemical
particulars: simulated gastric fluid, thermodynamic from solid, SGF, 0.5 hr
measured_attribute: solubility at 0.5 h (µg/mL)
A number alone suffices; assume µg/mL.

Query: Name the reported solubility at 0.5 h value associated with the compound CC(C)(O)[C@H]1CC[C@H](Nc2ccc3ncc(-c4cccc(C(F)(F)F)c4)n3n2)CC1 [compound of structure (I)]
Result: 1360
